Provenance of the data: patent US12122830

TEST_TARGET: T1, recombinant mouse ROR1 protein (Acrobiosystems, RO1-M5221) (mouse, UniProt Q9Z139 30-406)
T1 construct: extracellular domain; Bought; also called mouse ROR1 antigen
T1 sequence (Q9Z139 30-406): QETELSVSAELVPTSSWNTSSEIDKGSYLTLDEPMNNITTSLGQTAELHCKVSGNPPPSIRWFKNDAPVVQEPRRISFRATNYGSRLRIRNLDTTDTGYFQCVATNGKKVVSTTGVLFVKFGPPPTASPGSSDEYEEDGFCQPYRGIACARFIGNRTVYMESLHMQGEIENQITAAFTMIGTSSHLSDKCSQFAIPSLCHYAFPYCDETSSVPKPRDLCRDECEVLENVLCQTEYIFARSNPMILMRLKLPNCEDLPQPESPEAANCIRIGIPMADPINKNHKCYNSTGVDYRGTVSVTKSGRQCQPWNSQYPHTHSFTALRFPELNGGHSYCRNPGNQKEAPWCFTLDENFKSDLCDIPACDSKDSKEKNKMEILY
METHOD_NOTES: ELISA, recombinant mouse ROR1 protein coated at 1 µg/ml, IgG titrated, HRP anti-Fab detection

BINDER	binding result
A2F3 anti-ROR1 IgG antibody (antibody, V domains shown) VH: EVQLLESGGGLVQPGGSLRLSCAASGFTFSSYDMSWVRQAPGKGLEWVSWISPGGGSKYYADSVKGRFTISRDNSKNTLYLQMNSLRAEDTAVYYCARVNGRFDYWGQGTLVTVSS VL: QSVLTQPPSASGTPGQRVTISCSGSSSNIGNNNVSWYQQLPGTAPKLLIYADSHRPSGVPDRFSGSKSGTSASLAISGLRSEDEADYYCATWDYSLSGYVFGGGTKLTVLG	binds
